# TARGET_SYSTEM: Sialic acid-specific acetylesterase (Bacteroides thetaiotaomicron, UniProt Q8A331)
# Sequence (Q8A331 whole entry): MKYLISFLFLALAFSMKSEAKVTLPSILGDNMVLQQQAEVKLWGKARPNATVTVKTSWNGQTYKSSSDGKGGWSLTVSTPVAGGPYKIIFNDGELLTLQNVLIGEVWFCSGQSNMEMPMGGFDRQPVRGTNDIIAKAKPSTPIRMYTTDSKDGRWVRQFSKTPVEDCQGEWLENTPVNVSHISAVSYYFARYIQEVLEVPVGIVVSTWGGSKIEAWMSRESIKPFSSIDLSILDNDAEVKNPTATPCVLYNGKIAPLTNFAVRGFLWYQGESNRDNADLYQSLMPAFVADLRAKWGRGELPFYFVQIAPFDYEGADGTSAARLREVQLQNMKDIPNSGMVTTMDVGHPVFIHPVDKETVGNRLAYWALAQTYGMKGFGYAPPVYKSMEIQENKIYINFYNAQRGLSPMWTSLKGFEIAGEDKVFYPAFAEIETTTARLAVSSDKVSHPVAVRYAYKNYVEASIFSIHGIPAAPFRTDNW
# MEASUREMENT_DESCRIPTION: The drug is tested on Bacteroides thetaiotaomicron strain: VPI-5482 for biotransformation. The drug concentrations were measured before and after a 12-h incubation by liquid-chromatography-coupled mass spectrometry (LC–MS)
# Assay type: ADME
# Design: dose 2 uM
# ASSAY_SETUP: 2 µM
RECORDED_ENDPOINT: Bacterial Biotransformation

Answered cases to consult:
In [3]: df
Out[3]:
                                   compound        experimental_value
0  C#C[C@]1(O)CC[C@H]2[C@@H]3CCC4=CC(=O)CC[C@@H]4[C@H]3CC[C@@]21CC [LEVONORGESTREL]  Compound NOT metabolized
1  CC(=O)SCC(Cc1ccccc1)C(=O)NCC(=O)OCc1ccccc1 (stereo not drawn) [RACECADOTRIL]      Compound metabolized
2  C#C[C@]1(O)CC[C@H]2[C@@H]3CCC4=Cc5oncc5C[C@]4(C)[C@H]3CC[C@@]21C [DANAZOL]  Compound NOT metabolized
3  C[C@]12CCC(=O)C=C1[C@@H]1C[C@@H]1[C@H]1[C@@H]3[C@@H]4C[C@@H]4[C@@]4(CCC(=O)O4)[C@@]3(C)CC[C@@H]12 [DROSPIRENONE]  Compound NOT metabolized
4  C#C[C@]1(OC(C)=O)CC[C@H]2[C@@H]3CCC4=CC(=O)CC[C@@H]4[C@H]3CC[C@@]21C [NORETHINDRONE ACETATE]  Compound NOT metabolized
5  COc1ccc([C@@H]2Sc3ccccc3N(CCN(C)C)C(=O)[C@@H]2OC(C)=O)cc1 [DILTIAZEM]  Compound NOT metabolized
6  CC(=O)Oc1ccc(C(c2ccc(OC(C)=O)cc2)c2ccccn2)cc1 [BISACODYL]      Compound metabolized
7  CCN(CC)C(=O)/C(C#N)=C/c1cc(O)c(O)c([N+](=O)[O-])c1 [ENTACAPONE]  Compound NOT metabolized
8  COc1ccnc(C[S+]([O-])c2nc3ccc(OC(F)F)cc3[nH]2)c1OC (stereo not drawn) [PANTOPRAZOLE]  Compound NOT metabolized
9  N#Cc1ccc2c(c1)N(CCCN1CCC(O)CC1)c1ccccc1S2 [PERICIAZINE]  Compound NOT metabolized

input: // fetch Bacterial Biotransformation given entry CCS(=O)(=O)CCn1c([N+](=O)[O-])cnc1C [TINIDAZOLE]
output: Compound NOT metabolized

input: Input CCOC(=O)C1=C(C)NC(C)=C(C(=O)OC)C1c1cccc([N+](=O)[O-])c1 (stereo not drawn) [NITRENDIPINE] , output reported Bacterial Biotransformation.
output: Compound NOT metabolized

input: Determine its reported Bacterial Biotransformation: CC(=O)OCC(CCn1cnc2cnc(N)nc21)COC(C)=O [FAMCICLOVIR]
output: Compound metabolized
